Just for reference, paper PMC8742467 is where these values come from.

- Test system: histone modifications in 2102EP cells
- METHOD: Mass spectrometry analysis of histone modifications (Mod Spec)
- Format: cell-based, Human
- RUN CONDITIONS: 2102EP cells; Mod Spec raw data
I'd be grateful if you could share measured H3: K23ME1, % of peptide pool for these entries.
Give bare numbers, in %.

Example results:
>>> assay_result("Cc1ncsc1-c1ccc(CNC(=O)[C@@H]2C[C@@H](O)CN2C(=O)[C@@H](NC(=O)COCCOCCOCCNC(=O)C[C@@H]2N=C(c3ccc(Cl)cc3)c3c(sc(C)c3C)-n3c(C)nnc32)C(C)(C)C)cc1 [MZ-1]")
0.008431
>>> assay_result("Cn1cc(CNCC2CCN(c3ncc(C(=O)NO)cn3)CC2)c2ccccc21 [Quisinostat]")
0.02903
>>> assay_result("Cc1cc(=O)n(C)c2cc(N3C(=O)CC[C@H](NS(=O)(=O)CC(C)C)[C@H]3c3ccc(Cl)cc3)ccc12 [LP99]")
0.02213

For each of the molecules below, state H3: K23ME1, % of peptide pool.
1. CCCc1cc(C)[nH]c(=O)c1CNC(=O)c1cc(-c2ccnc(N3CCN(C)CC3)c2)cc2c1cnn2C(C)C [GSK343]
2. CN1C(=O)[C@@]23C[C@]4([C@]56C[C@@]78SS[C@@](CO)(C(=O)N7[C@H]5Nc5ccccc56)N(C)C8=O)c5ccccc5N[C@@H]4N2C(=O)[C@]1(CO)SS3 [Chaetocin]

0.01722
0.03585

For each of the molecules below, state H3: K23ME1, % of peptide pool.
1. Clc1ccc(N/N=C(\c2ccccc2)c2ccccn2)nc1 [JIB-04]
2. O=C1C(=Cc2cccnc2)C(=O)c2ccccc21 [PRT4165]

1: 0.01047; 2: 0.05975

====

- Test system: histone modifications in 2102EP cells
- METHOD: Mass spectrometry analysis of histone modifications (Mod Spec)
- Assay type: cell-based, Human
- RUN CONDITIONS: 2102EP cells; Mod Spec raw data
REPORTED PROPERTY: H3: K64UN, % of peptide pool (%)
Answers are plain numbers, in %.

Example results:
>>> assay_result("CN1C(=O)[C@@]23C[C@]4([C@]56C[C@@]78SS[C@@](CO)(C(=O)N7[C@H]5Nc5ccccc56)N(C)C8=O)c5ccccc5N[C@@H]4N2C(=O)[C@]1(CO)SS3 [Chaetocin]")
99.9626
>>> assay_result("Clc1ccc(N/N=C(\\c2ccccc2)c2ccccn2)nc1 [JIB-04]")
99.9865
>>> assay_result("Cn1cc(CNCC2CCN(c3ncc(C(=O)NO)cn3)CC2)c2ccccc21 [Quisinostat]")
99.9691
>>> assay_result("Cc1ncsc1-c1ccc(CNC(=O)[C@@H]2C[C@@H](O)CN2C(=O)[C@@H](NC(=O)COCCOCCOCCNC(=O)C[C@@H]2N=C(c3ccc(Cl)cc3)c3c(sc(C)c3C)-n3c(C)nnc32)C(C)(C)C)cc1 [MZ-1]")
99.939

For each of the compounds below, state H3: K64UN, % of peptide pool.
1. Cc1cc(=O)n(C)c2cc(N3C(=O)CC[C@H](NS(=O)(=O)CC(C)C)[C@H]3c3ccc(Cl)cc3)ccc12 [LP99]
2. CCCc1cc(C)[nH]c(=O)c1CNC(=O)c1cc(-c2ccnc(N3CCN(C)CC3)c2)cc2c1cnn2C(C)C [GSK343]
3. O=C1C(=Cc2cccnc2)C(=O)c2ccccc21 [PRT4165]

99.9854
99.9833
99.9774

====

I'd be grateful if you could share measured H1.4: K25ME2, % of peptide pool for these entries.
- Tested on: histone modifications in 2102EP cells
- METHOD: Mass spectrometry analysis of histone modifications (Mod Spec)
- Type: cell-based, Human
- RUN CONDITIONS: 2102EP cells; Mod Spec raw data

Example results:
>>> assay_result("Cc1cc(=O)n(C)c2cc(N3C(=O)CC[C@H](NS(=O)(=O)CC(C)C)[C@H]3c3ccc(Cl)cc3)ccc12 [LP99]")
"0.02267%"
>>> assay_result("O=C1C(=Cc2cccnc2)C(=O)c2ccccc21 [PRT4165]")
"0.1042%"

For each of the compounds below, state H1.4: K25ME2, % of peptide pool.
1. Cn1cc(CNCC2CCN(c3ncc(C(=O)NO)cn3)CC2)c2ccccc21 [Quisinostat]
2. Clc1ccc(N/N=C(\c2ccccc2)c2ccccn2)nc1 [JIB-04]

1. 0.1017%
2. 0.06041%

For each of the compounds below, state H1.4: K25ME2, % of peptide pool.
1. CCCc1cc(C)[nH]c(=O)c1CNC(=O)c1cc(-c2ccnc(N3CCN(C)CC3)c2)cc2c1cnn2C(C)C [GSK343]
2. CN1C(=O)[C@@]23C[C@]4([C@]56C[C@@]78SS[C@@](CO)(C(=O)N7[C@H]5Nc5ccccc56)N(C)C8=O)c5ccccc5N[C@@H]4N2C(=O)[C@]1(CO)SS3 [Chaetocin]
3. Cc1ncsc1-c1ccc(CNC(=O)[C@@H]2C[C@@H](O)CN2C(=O)[C@@H](NC(=O)COCCOCCOCCNC(=O)C[C@@H]2N=C(c3ccc(Cl)cc3)c3c(sc(C)c3C)-n3c(C)nnc32)C(C)(C)C)cc1 [MZ-1]

["0.05379%", "0.1186%", "0.007907%"]

====

- Test system: histone modifications in 2102EP cells
- METHOD: Mass spectrometry analysis of histone modifications (Mod Spec)
- Type: cell-based, Human
- RUN CONDITIONS: 2102EP cells; Mod Spec raw data
Given measured H3.1: K36AC, % of peptide pool, output rule met if it is greater than or equal to 0.2% and rule not met if not.

Worked examples, 6 molecules total:
>>> category_label("Cn1cc(CNCC2CCN(c3ncc(C(=O)NO)cn3)CC2)c2ccccc21")
"rule met"
>>> category_label("CCCc1cc(C)[nH]c(=O)c1CNC(=O)c1cc(-c2ccnc(N3CCN(C)CC3)c2)cc2c1cnn2C(C)C")
"rule met"
>>> category_label("O=C1C(=Cc2cccnc2)C(=O)c2ccccc21")
"rule met"
>>> category_label("Cc1cc(=O)n(C)c2cc(N3C(=O)CC[C@H](NS(=O)(=O)CC(C)C)[C@H]3c3ccc(Cl)cc3)ccc12")
"rule not met"
>>> category_label("Cc1ncsc1-c1ccc(CNC(=O)[C@@H]2C[C@@H](O)CN2C(=O)[C@@H](NC(=O)COCCOCCOCCNC(=O)C[C@@H]2N=C(c3ccc(Cl)cc3)c3c(sc(C)c3C)-n3c(C)nnc32)C(C)(C)C)cc1")
"rule not met"
>>> category_label("Clc1ccc(N/N=C(\\c2ccccc2)c2ccccn2)nc1")
"rule not met"

Please turn your attention to the following entry.
Is H3.1: K36AC, % of peptide pool at least 0.2%? Consider CN1C(=O)[C@@]23C[C@]4([C@]56C[C@@]78SS[C@@](CO)(C(=O)N7[C@H]5Nc5ccccc56)N(C)C8=O)c5ccccc5N[C@@H]4N2C(=O)[C@]1(CO)SS3
rule met

====

- System: histone modifications in 2102EP cells
- METHOD: Mass spectrometry analysis of histone modifications (Mod Spec)
- Assay type: cell-based, Human
- RUN CONDITIONS: 2102EP cells; Mod Spec raw data
I'd be grateful if you could share measured H3.3: K36ME2, % of peptide pool for these entries.
Numbers only, in %.

Example results:
>>> assay_result("Cc1cc(=O)n(C)c2cc(N3C(=O)CC[C@H](NS(=O)(=O)CC(C)C)[C@H]3c3ccc(Cl)cc3)ccc12")
50.9616
>>> assay_result("CN1C(=O)[C@@]23C[C@]4([C@]56C[C@@]78SS[C@@](CO)(C(=O)N7[C@H]5Nc5ccccc56)N(C)C8=O)c5ccccc5N[C@@H]4N2C(=O)[C@]1(CO)SS3")
46.3675
>>> assay_result("Cc1ncsc1-c1ccc(CNC(=O)[C@@H]2C[C@@H](O)CN2C(=O)[C@@H](NC(=O)COCCOCCOCCNC(=O)C[C@@H]2N=C(c3ccc(Cl)cc3)c3c(sc(C)c3C)-n3c(C)nnc32)C(C)(C)C)cc1")
53.2755
>>> assay_result("Clc1ccc(N/N=C(\\c2ccccc2)c2ccccn2)nc1")
56.7436
>>> assay_result("CCCc1cc(C)[nH]c(=O)c1CNC(=O)c1cc(-c2ccnc(N3CCN(C)CC3)c2)cc2c1cnn2C(C)C")
51.706

For each of the molecules below, state H3.3: K36ME2, % of peptide pool.
1. O=C1C(=Cc2cccnc2)C(=O)c2ccccc21
2. Cn1cc(CNCC2CCN(c3ncc(C(=O)NO)cn3)CC2)c2ccccc21

45.5834
52.9264

====

I'd be grateful if you could share measured H1.4: K25UN, % of peptide pool for these entries.
- System: histone modifications in 2102EP cells
- METHOD: Mass spectrometry analysis of histone modifications (Mod Spec)
- Format: cell-based, Human
- RUN CONDITIONS: 2102EP cells; Mod Spec raw data
Answers are plain numbers, in %.

Example results:
>>> assay_result("Cc1ncsc1-c1ccc(CNC(=O)[C@@H]2C[C@@H](O)CN2C(=O)[C@@H](NC(=O)COCCOCCOCCNC(=O)C[C@@H]2N=C(c3ccc(Cl)cc3)c3c(sc(C)c3C)-n3c(C)nnc32)C(C)(C)C)cc1")
97.9109
>>> assay_result("Cc1cc(=O)n(C)c2cc(N3C(=O)CC[C@H](NS(=O)(=O)CC(C)C)[C@H]3c3ccc(Cl)cc3)ccc12")
97.6933

For each of the molecules below, state H1.4: K25UN, % of peptide pool.
1. Clc1ccc(N/N=C(\c2ccccc2)c2ccccn2)nc1
2. CN1C(=O)[C@@]23C[C@]4([C@]56C[C@@]78SS[C@@](CO)(C(=O)N7[C@H]5Nc5ccccc56)N(C)C8=O)c5ccccc5N[C@@H]4N2C(=O)[C@]1(CO)SS3
3. O=C1C(=Cc2cccnc2)C(=O)c2ccccc21
4. Cn1cc(CNCC2CCN(c3ncc(C(=O)NO)cn3)CC2)c2ccccc21

[97.7528, 97.812, 97.522, 98.1009]

H1.4: K25UN, % of peptide pool recorded for this molecule, CCCc1cc(C)[nH]c(=O)c1CNC(=O)c1cc(-c2ccnc(N3CCN(C)CC3)c2)cc2c1cnn2C(C)C , is 97.6705
